// reported IC50 per item
- Study target: hNaV1.7 (Homo sapiens, UniProt Q15858)
- Construct: expressed in transfected cells; host or cells: HEK293
- Sequence (Q15858 whole entry): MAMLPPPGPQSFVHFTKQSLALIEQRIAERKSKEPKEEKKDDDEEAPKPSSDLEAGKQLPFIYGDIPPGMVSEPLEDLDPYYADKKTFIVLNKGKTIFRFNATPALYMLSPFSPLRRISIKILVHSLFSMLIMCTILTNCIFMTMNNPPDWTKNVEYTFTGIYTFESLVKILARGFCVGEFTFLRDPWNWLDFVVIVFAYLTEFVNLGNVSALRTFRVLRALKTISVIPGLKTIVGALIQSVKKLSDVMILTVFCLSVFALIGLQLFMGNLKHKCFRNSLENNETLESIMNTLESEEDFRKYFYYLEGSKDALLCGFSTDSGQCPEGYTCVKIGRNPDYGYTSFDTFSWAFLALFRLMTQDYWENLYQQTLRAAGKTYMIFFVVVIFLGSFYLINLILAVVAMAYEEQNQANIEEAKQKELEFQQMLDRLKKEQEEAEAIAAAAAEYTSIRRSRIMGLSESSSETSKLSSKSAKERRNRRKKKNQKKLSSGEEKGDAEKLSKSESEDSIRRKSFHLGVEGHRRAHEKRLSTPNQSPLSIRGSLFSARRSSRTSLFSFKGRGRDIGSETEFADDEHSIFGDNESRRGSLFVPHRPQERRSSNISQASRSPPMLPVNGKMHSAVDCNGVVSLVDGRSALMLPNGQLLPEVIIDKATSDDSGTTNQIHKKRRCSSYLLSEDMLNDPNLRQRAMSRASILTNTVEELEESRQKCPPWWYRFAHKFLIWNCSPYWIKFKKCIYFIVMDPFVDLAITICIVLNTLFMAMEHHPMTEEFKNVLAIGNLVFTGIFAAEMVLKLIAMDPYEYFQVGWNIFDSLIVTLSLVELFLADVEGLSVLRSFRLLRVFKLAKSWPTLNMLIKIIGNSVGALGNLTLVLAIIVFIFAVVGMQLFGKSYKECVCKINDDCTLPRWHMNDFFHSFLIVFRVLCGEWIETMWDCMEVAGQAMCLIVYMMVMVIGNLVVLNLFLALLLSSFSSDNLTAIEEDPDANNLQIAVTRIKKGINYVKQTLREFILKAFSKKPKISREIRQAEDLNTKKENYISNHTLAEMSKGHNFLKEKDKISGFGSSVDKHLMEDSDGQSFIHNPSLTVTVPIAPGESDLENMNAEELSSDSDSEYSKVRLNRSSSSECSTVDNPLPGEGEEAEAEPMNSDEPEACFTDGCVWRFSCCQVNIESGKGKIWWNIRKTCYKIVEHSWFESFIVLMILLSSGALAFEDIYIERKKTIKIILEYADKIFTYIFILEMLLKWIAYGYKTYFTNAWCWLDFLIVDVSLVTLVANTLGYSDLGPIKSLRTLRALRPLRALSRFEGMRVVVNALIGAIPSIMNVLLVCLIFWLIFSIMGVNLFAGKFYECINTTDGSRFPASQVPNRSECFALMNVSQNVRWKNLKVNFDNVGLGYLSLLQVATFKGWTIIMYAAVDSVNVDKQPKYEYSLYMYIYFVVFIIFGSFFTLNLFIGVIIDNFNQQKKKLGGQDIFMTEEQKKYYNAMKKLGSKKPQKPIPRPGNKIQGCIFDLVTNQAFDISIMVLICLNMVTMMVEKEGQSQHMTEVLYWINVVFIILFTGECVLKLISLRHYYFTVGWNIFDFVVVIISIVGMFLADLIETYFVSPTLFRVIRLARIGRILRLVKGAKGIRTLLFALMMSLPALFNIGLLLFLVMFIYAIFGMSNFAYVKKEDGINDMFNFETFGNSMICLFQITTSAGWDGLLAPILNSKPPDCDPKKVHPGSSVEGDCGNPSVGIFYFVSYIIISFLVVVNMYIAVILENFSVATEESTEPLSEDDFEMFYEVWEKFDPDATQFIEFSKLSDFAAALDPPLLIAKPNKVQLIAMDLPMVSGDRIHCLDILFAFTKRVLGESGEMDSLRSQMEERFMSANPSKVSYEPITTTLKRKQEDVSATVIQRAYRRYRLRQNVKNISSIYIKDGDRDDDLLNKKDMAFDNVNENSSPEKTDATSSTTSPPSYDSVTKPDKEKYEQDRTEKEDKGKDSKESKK
- Assay overview: QPatch NaV1.7 assay (whole-cell patch clamp, QPatch16x)
- Format: cell-based
- Protocol conditions: holding voltage V1/2 SSI (half of channels inactivated), HEK293-hNaV1.7 cells, read-out: QP Nav1.7 SSI vhalf pIC50 (converted)
Structures can show the parent of a compound that is named as a salt.

Cc1cc(-c2ccc(C(F)(F)F)cc2)cc([C@@H]2CC[C@]3(CCCNC3=O)N2)n1 [Example 98, hydrochloride]
0.631 µM
CCOc1ccc(F)c(-c2ccnc([C@H]3CC[C@@]4(CC(C)(C)NC4=O)N3)c2)c1 [Example 217, hydrochloride]
3.98 µM
Cc1cc(-c2ccc(C(F)(F)F)cc2)cc([C@H]2CC[C@]3(CCCNC3=O)N2)n1 [Example 100, hydrochloride]
0.2 µM

For this compound ( Cc1cc(-c2ccc(OC(C)C)nc2)cc([C@@H]2CC[C@]3(CCN(C)C3=O)N2)n1 [Example 209, hydrochloride] ), measured IC50 is 3.16 µM

For this compound ( CCOc1cc(-c2ccnc([C@@H]3CC[C@@]4(CCN(C)C4=O)N3)c2)c(F)cc1C [Example 150, hydrochloride] ), measured IC50 is 12.6 µM

For this compound ( CCOc1ccc(F)c(-c2cc([C@H]3CC[C@@]4(CCN(C)C4=O)N3)ncc2C)c1 [Example 137, hydrochloride] ), measured IC50 is 20 µM

For this compound ( CN1CC[C@@]2(CC(F)C(c3cc(-c4ccc(C(F)(F)F)cc4)ccn3)N2)C1=O (single isomer, unassigned) [Example 239] ), measured IC50 is 15.8 µM
